- System: CHP134
- Assay protocol: CHP134 CellTiter-Glo (CTG) Assay
- Format: cell-based
- Experimental conditions: Homo sapiens, CHP-134, 120 h; viable cells by CellTiter-Glo after 5 days
Attribute measured: log10(IC50) (log10 of the value in nM)

Smiles string	Study system	Measured result
COc1ccc2c(c1)[C@]1(C[C@H]1c1ccc3c(Nc4cc(-c5cscn5)ccc4OC)n[nH]c3c1)C(=O)N2	CHP134	1.97
COc1ccc2c(c1)[C@]1(C[C@H]1c1ccc3c(Nc4cc(-c5cnn(CC(F)F)c5)cnc4OC)n[nH]c3c1)C(=O)N2	CHP134	2.57
COc1ccc2c(c1)[C@]1(C[C@H]1c1ccc3c(Nc4cc(-c5cnn(C)c5)ccc4OC)n[nH]c3c1)C(=O)N2	CHP134	2.04
CCOc1cc(-n2cncn2)ccc1Nc1n[nH]c2cc([C@@H]3C[C@@]34C(=O)Nc3ccc(OC)cc34)ccc12	CHP134	2.08
CCOc1ccc(-c2cnn(C)c2)cc1Nc1n[nH]c2cc([C@@H]3C[C@@]34C(=O)Nc3ccc(OC)cc34)ccc12	CHP134	2.65
COc1ccc2c(c1)[C@]1(C[C@H]1c1ccc3c(Nc4nc(-c5ncco5)ccc4OC)n[nH]c3c1)C(=O)N2	CHP134	1.73
COc1ccc2c(c1)[C@]1(C[C@H]1c1ccc3c(Nc4cc(-c5cnco5)ccc4OC)n[nH]c3c1)C(=O)N2	CHP134	2.23
COc1ccc2c(c1)[C@]1(C[C@H]1c1ccc3c(Nc4nc(-c5cnco5)ncc4OC)n[nH]c3c1)C(=O)N2	CHP134	2.37
COc1ccc2c(c1)[C@]1(C[C@H]1c1ccc3c(Nc4cc(-c5nnn(C)n5)ccc4OC)n[nH]c3c1)C(=O)N2	CHP134	2.60
CCOc1cc(S(C)(=O)=O)ccc1Nc1n[nH]c2cc([C@@H]3C[C@@]34C(=O)N(C)c3ccc(OC)cc34)ccc12	CHP134	2.05
CCS(=O)(=O)c1ccc(Nc2n[nH]c3cc([C@@H]4C[C@@]45C(=O)Nc4ccc(OC)cc45)ccc23)c(OC)c1	CHP134	1.59
COc1ccc2c(c1)[C@]1(C[C@H]1c1ccc3c(Nc4nc(-c5cnn(C)c5)ncc4OC)n[nH]c3c1)C(=O)N2	CHP134	2.13
CCOc1cnc(-c2nccs2)cc1Nc1n[nH]c2cc([C@@H]3C[C@@]34C(=O)Nc3ccc(OC)cc34)ccc12	CHP134	2.14
CCOc1ncc(-c2nccs2)cc1Nc1n[nH]c2cc([C@@H]3C[C@@]34C(=O)Nc3ccc(OC)cc34)ccc12	CHP134	2.12

* * *

- Study system: human recombinant Aurora A (Homo sapiens, UniProt O14965)
- Construct: purchased ThermoFisher PR5935A
- Sequence (O14965 1-403): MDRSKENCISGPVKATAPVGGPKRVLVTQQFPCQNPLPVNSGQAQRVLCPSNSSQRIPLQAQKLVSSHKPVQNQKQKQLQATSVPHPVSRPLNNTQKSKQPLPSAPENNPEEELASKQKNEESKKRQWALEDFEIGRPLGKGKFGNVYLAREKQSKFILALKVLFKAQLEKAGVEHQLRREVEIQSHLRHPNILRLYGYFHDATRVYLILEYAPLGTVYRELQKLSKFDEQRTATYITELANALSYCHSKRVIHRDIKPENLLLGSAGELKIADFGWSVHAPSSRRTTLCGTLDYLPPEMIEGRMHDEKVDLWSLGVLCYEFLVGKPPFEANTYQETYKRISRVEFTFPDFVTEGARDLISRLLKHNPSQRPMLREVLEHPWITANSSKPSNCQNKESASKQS
- Assay protocol: Aurora A Kinase Biochemical Assay (ADP-Glo)
- Experimental conditions: selectivity ratio; Aurora A 2.5 nM, 20 μM ATP
Attribute measured: [Aurora A IC50 (nM)]/[PLK4 IC50 (nM)]

Smiles string	Study system	Measured result
CCOc1cnc(C#CC(C)(C)O)nc1Nc1n[nH]c2cc([C@@H]3C[C@@]34C(=O)Nc3ccc(OC)cc34)ccc12	human recombinant Aurora A (Homo sapiens, UniProt O14965)	42971.2230
COc1ccc2c(c1)[C@]1(C[C@H]1c1ccc3c(Nc4cc(-c5cn(C)nc5OC)ccc4OC)n[nH]c3c1)C(=O)N2	human recombinant Aurora A (Homo sapiens, UniProt O14965)	4350.9615
COc1ccc2c(c1)[C@]1(C[C@H]1c1ccc3c(Nc4cc(-c5ncco5)ccc4OC)n[nH]c3c1)C(=O)N2	human recombinant Aurora A (Homo sapiens, UniProt O14965)	414.8
CCOc1cc(-c2cn(C)cn2)ccc1Nc1n[nH]c2cc([C@@H]3C[C@@]34C(=O)Nc3ccc(OC)cc34)ccc12	human recombinant Aurora A (Homo sapiens, UniProt O14965)	15611.2532
COc1ccc2c(c1)[C@]1(C[C@H]1c1ccc3c(Nc4nc(-c5cnn(C)c5)cnc4OC)n[nH]c3c1)C(=O)N2	human recombinant Aurora A (Homo sapiens, UniProt O14965)	842.4019
COc1ccc2c(c1)[C@]1(C[C@H]1c1ccc3c(Nc4cc(-c5cnn(CC(F)F)c5)cnc4OC)n[nH]c3c1)C(=O)N2	human recombinant Aurora A (Homo sapiens, UniProt O14965)	469.9759
CCOc1ccc(-c2nccs2)nc1Nc1n[nH]c2cc([C@@H]3C[C@@]34C(=O)Nc3ccc(OC)cc34)ccc12	human recombinant Aurora A (Homo sapiens, UniProt O14965)	1135
